The molecules listed here are annotated with their MIC.
Tested on: Bacteria
Test: Inhibition of bacterial NDM1 expressed in Escherichia coli DH10B assessed as potentiation of cefazolin-induced antibacterial activity by measuring cefazolin MIC at 32 ug/ml after 16 hrs by broth micro-dilution method (reference value: 8 ug/ml)
Write down the numeric answer in µg/mL and omit the unit.

[[record]]
test_smiles = "O=C(O)CN1C(=O)/C(=C/c2ccc(C(F)(F)F)cc2)SC1=S"
reported_result = 4

[[record]]
test_smiles = "O=C(O)CN1C(=O)/C(=C/c2ccc(F)cc2)SC1=S"
reported_result = 4

[[record]]
test_smiles = "O=C(O)CN1C(=O)/C(=C/c2ccc3ccccc3c2)SC1=S"
reported_result = 16

[[record]]
test_smiles = "O=C(O)CN1C(=O)/C(=C/c2ccc([N+](=O)[O-])cc2[N+](=O)[O-])SC1=S"
reported_result = 8

[[record]]
test_smiles = "O=C(O)CN1C(=O)/C(=C/c2ccccc2)SC1=S"
reported_result = 8

[[record]]
test_smiles = "O=C(O)c1ccc(N2C(=O)/C(=C/c3ccc(F)cc3)SC2=S)cc1"
reported_result = 2


So, O=C(O)c1ccc(N2C(=O)/C(=C/c3ccco3)SC2=S)cc1 ? Its MIC was 4

So, O=C(O)c1ccc(N2C(=O)/C(=C/c3ccc(Cl)cc3)SC2=S)cc1 ? Its MIC was 1

So, O=C(O)CN1C(=O)/C(=C/c2cccc3ccccc23)SC1=S ? Its MIC was 8

So, O=C(O)c1ccc(N2C(=O)/C(=C/c3ccccn3)SC2=S)cc1 ? Its MIC was 2

So, O=C(O)CN1C(=O)/C(=C/c2ccccn2)SC1=S ? Its MIC was 8

So, O=C(O)c1ccc(N2C(=O)/C(=C/c3cccc4ccccc34)SC2=S)cc1 ? Its MIC was 8

So, O=C(O)CN1C(=O)/C(=C/c2ccc(Cl)cc2)SC1=S ? Its MIC was 8

====

The compounds listed here are annotated with their IC50.
Test: Inhibition of bacterial NDM1 expressed in Escherichia coli BL21(DE3) using cefazolin as substrate by spectrometric method
Design: species or system Bacteria

Consider the reported IC50 for these compounds:
[[record]]
test_smiles = "O=C(O)c1ccc(N2C(=O)/C(=C/c3ccco3)SC2=S)cc1"
reported_result = "0.69 µM"

[[record]]
test_smiles = "O=C(O)CN1C(=O)/C(=C/c2ccccc2[N+](=O)[O-])SC1=S"
reported_result = "27.4 µM"

[[record]]
test_smiles = "O=C(O)c1ccc(N2C(=O)/C(=C/c3ccccc3)SC2=S)cc1"
reported_result = "8.7 µM"


Consider the additional compound presented here.
So, O=C(O)c1ccc(N2C(=O)/C(=C/c3ccc(F)cc3)SC2=S)cc1 ? Its IC50 was 8.4 µM

====

The compounds listed here are annotated with their MIC.
Test system: Bacteria
Assay: Inhibition of bacterial NDM1 expressed in Escherichia coli DH10B assessed as potentiation of cefazolin-induced antibacterial activity by measuring cefazolin MIC at 32 ug/ml after 16 hrs by broth micro-dilution method (reference value: 8 ug/ml)
Write down the numeric answer in µg/mL and omit the unit.

So, O=C(O)CN1C(=O)/C(=C/c2ccccc2[N+](=O)[O-])SC1=S ? Its MIC was 4

So, O=C(O)CN1C(=O)/C(=C/c2ccc(Cl)cc2Cl)SC1=S ? Its MIC was 4

So, O=C(O)CN1C(=O)/C(=C/c2ccco2)SC1=S ? Its MIC was 8

So, COc1ccc(/C=C2\SC(=S)N(CC(=O)O)C2=O)cc1 ? Its MIC was 4
